Would you mind telling me the reported Inhibition ratio of each entry?
# System: HT-1080
# assay: In vitro inhibitory activity against HT1080 tumor cell invasion using Matrigel (MG) at a concentration of 10 uM
# Type: functional, Homo sapiens

Hi there! I need Inhibition ratio for each item below, if you can.
1. Nc1ncnc2c1ncn2CCOP(=O)(O)O
2. Nc1ncnc2c1ncn2CCO
3. Nc1ncnc2c1nc(Br)n2CCOP(=O)(O)O
4. Nc1ncnc2c1ncn2CCOP(=O)(O)OP(=O)(O)OP(=O)(O)O
5. CNc1ncnc2c1ncn2CCOP(=O)(O)O

["46%", "~2%", "~23%", "~35%", "~46%"]

---

# measured_on: Matrix metalloproteinase-9 (Homo sapiens)
# assay: Inhibition of collagen IV degradation by matrix metalloprotease-9 at 100 uM
metric: Inhibition ratio (%)
Answers are plain numbers, in %.

Check out these entries, answers already filled in.
CNc1ncnc2c1ncn2CCOP(=O)(O)O: 55
Nc1ncnc2c1nc(Br)n2CCOP(=O)(O)O: 41
Nc1ncnc2c1ncn2CCOP(=O)(O)OP(=O)(O)OP(=O)(O)O: 69
Nc1ncnc2c1ncn2CCOP(=O)(O)O: 57

Hi there! I need Inhibition ratio for each item below, if you can.
1. O=P(O)(O)OCCn1cnc2c(Cl)ncnc21
2. Nc1ncnc2c1ncn2CCO

12
18
